test system: FES; details: Compound Concentration (nM):1000;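 also: KINOMEscan scanMAX binding as percent activity remaining versus control; lower means stronger binding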
measured-attribute: Percent Control

Recorded Percent Control, per entry:
> print(dat)
                                   compound  result
1  Cl.c1ccc(Cc2nc3ccc(Nc4ncnc5ccccc45)cc3[nH]2)cc1 [GR269666A]    100%
2  Cl.O=C(Nc1ccc(Oc2ccc3[nH]c(NC(=O)c4ccccc4)nc3c2)cc1)Nc1cc(C(F)(F)F)ccc1F [GW709042A]     94%
3  C/C(Nc1ccc(S(N)(=O)=O)cc1)=C1/C(=O)Nc2ccccc21 [GW335962X]     84%

Switching to the query record.
Sample NS(=O)(=O)c1ccc(N/N=C2\C(=O)Nc3ccc(C(=O)NCc4ccncc4)cc32)cc1 [GW300657X] — what was its Percent Control?
100%

====

test system: TSSK1B; settings: Compound Concentration (nM):1000
measured-attribute: Percent Control
Field note: include the unit after the figure.

> print(dat)
                                   compound  assayed.target  measured.attribute  result
1  COc1cc(C)c(N(C)C(=O)CN(C)C)cc1Nc1nc(Nc2cccc(F)c2C(N)=O)c2cc[nH]c2n1 [GSK2219385]          TSSK1B     Percent Control    100%
2  COc1cc2ncnc(Nc3ccc4c(cnn4Cc4ccccc4)c3)c2cc1OC.Cl [GW282449A]          TSSK1B     Percent Control    100%
3  COc1ccc2cc(-c3c(-c4ccncc4)nc(-c4ccc(S(C)(=O)=O)cc4C)n3C)ccc2c1 [SB-633825]          TSSK1B     Percent Control     74%
4  NS(=O)(=O)c1ccc(N/N=C2\C(=O)Nc3ccc(-c4cnco4)cc32)cc1 [GW276655]          TSSK1B     Percent Control    100%
5  COc1ccc(COc2ccc(Cc3cnc(N)nc3N)cc2OC)cc1 [GW632580X]          TSSK1B     Percent Control    100%

# Percent Control lookup, item COC(=O)Nc1nc2ccc(Oc3ccc(NC(=O)Nc4cc(C(F)(F)F)ccc4F)cc3)cc2s1.Cl [GW693917A]
92%

Record request: Percent Control value, item Nc1ncnc2occ(-c3ccc(NC(=O)Nc4cc(C(F)(F)F)ccc4F)cc3)c12 [GW770249X]
100%

So what's the measured Percent Control for this one? COc1cccc(-c2c[nH]c3c(N/N=C/c4ccncc4)ncnc23)c1 [GW814408X]
98%

====

Listing: Percent Control of selected molecules
test system: ICK; details: Compound Concentration (nM):1000
Reply with just the number (in %).

> print(dat)
                                   molecule  assayed.target  result.number
1  CCS(=O)(=O)c1ccc(OC)c(Nc2ncc(-c3cccc(F)c3)o2)c1 [GW621970X]             ICK            100
2  NS(=O)(=O)c1ccc(N/N=C2\C(=O)Nc3ccc(C(=O)NCCc4c[nH]cn4)cc32)cc1 [GW300660X]             ICK             22
3  CN(C)CCNC(=O)Nc1ccc(N(C)c2ccnc(Nc3ccc(CS(C)(=O)=O)cc3)n2)cc1.Cl [GW830900A]             ICK             70

Okay, next one:
Quick one: Percent Control for COc1ccc2[nH]c3c4[nH]c5ccc(OC)cc5c4c4c(c3c2c1)C(=O)NC4=O [GW296115X] ?
89

====

Recorded Percent Control values for a group of molecules are listed next.
system: EPHA2; settings: Compound Concentration (nM):1000
Answer with a number only, understood to be in %.

The cases that follow already have their Percent Control on record.
> print(dat)
                                   molecule  u  result.number
1  Cl.O=C(O[C@H]1CN[C@H](C#Cc2cc3ncnc(Nc4ccc5c(cnn5Cc5ccccc5)c4)c3s2)C1)N1CCOCC1 [GSK200398A]  %             96
2  NS(=O)(=O)c1ccc(N/N=C2\C(=O)Nc3ccc(-c4cnco4)cc32)cc1 [GW276655]  %            100

Which Percent Control is listed for COc1ccc2c(-c3ccnc(Nc4cccc(OC(F)(F)F)c4)n3)cnn2n1 [GW810372X] ?
91

Field request: Percent Control | item: COc1ccccc1-c1cc(/C=C2\C(=O)Nc3ncc(Br)cc32)cc(Br)c1O [GW442130X]
100

====

The compounds listed here are annotated with their Percent Control.
system: MLCK; construct: gene MYLK3; settings: Compound Concentration (nM):1000
Kindly write the number and append the unit.

Solved entries:
> print(dat)
                                   compound  measured.attribute  result
1  COc1cc(C=NNc2ncnc3c2cnn3-c2ccccc2)ccc1O [GW513184X]     Percent Control     98%
2  COc1cc(/C=N/Nc2ncnc3[nH]ncc23)ccc1O [GW578748X]     Percent Control     90%
3  Cl.O=C(Nc1ccc(Oc2ccc3[nH]c(NC(=O)c4ccccc4)nc3c2)cc1)Nc1cc(C(F)(F)F)ccc1F [GW709042A]     Percent Control    100%
4  COc1cc(C)c(N(C)C(=O)CN(C)C)cc1Nc1nc(Nc2cccc(F)c2C(N)=O)c2cc[nH]c2n1 [GSK2219385]     Percent Control     78%
5  NS(=O)(=O)c1ccc(Nc2ncc(-c3ccccc3)o2)cc1 [GW572399X]     Percent Control    100%

Fill in: Percent Control of CN(C)CCNC(=O)Nc1ccc(N(C)c2ccnc(Nc3ccc(CS(C)(=O)=O)cc3)n2)cc1.Cl [GW830900A] is ___
100%

Would you mind telling me what Percent Control value was observed for O=C1Nc2ccc(C(=O)c3ccco3)cc2C1=Cc1cc(Cl)c(O)c(Cl)c1 [GW406108X] ?
100%

// returns reported Percent Control for input COc1ccc2cc(-c3c(-c4ccncc4)nc(-c4ccc(S(C)(=O)=O)cc4C)n3C)ccc2c1 [SB-633825]
90%

====

system: STK16; settings: Compound Concentration (nM):1000
Percent Control listing for selected molecules.
Report the value in % with no unit label.

Example entries begin here.
> print(dat)
                                   molecule  assayed.target  measured.attribute  u  result.number
1  CC1=C(C(=O)Nc2ccc3[nH]ncc3c2)C(c2ccc(Cl)c(Cl)c2)CC(=O)N1 (centres unmarked) [GSK299115A]           STK16     Percent Control  %             85
2  NS(=O)(=O)c1ccc(Nc2ncc(-c3ccccc3)o2)cc1 [GW572399X]           STK16     Percent Control  %             31
3  COc1cccc(-n2ncc3c(N/N=C/c4ccncc4)ncnc32)c1 [GW784752X]           STK16     Percent Control  %             82
4  CN1CCN(C(=O)c2ccc(NC(=O)Nc3ccc(N(C)c4ccnc(Nc5ccc(CS(C)(=O)=O)cc5)n4)cc3)cc2)CC1.Cl [GW830263A]           STK16     Percent Control  %             15
5  Cl.O=C(Nc1ccc(Oc2ccc3[nH]c(NC(=O)c4ccccc4)nc3c2)cc1)Nc1cc(C(F)(F)F)ccc1F [GW709042A]           STK16     Percent Control  %             88
6  Nc1ncnc2occ(-c3ccc(NC(=O)Nc4cc(C(F)(F)F)ccc4F)cc3)c12 [GW770249X]           STK16     Percent Control  %             97

Percent Control for Cl.O=C(Nc1ccc(Oc2ccc3[nH]c(NC(=O)c4ccco4)nc3c2)cc1)Nc1cc(C(F)(F)F)ccc1F [GW683134A] ?
92

Percent Control for COc1ccc2cc(-c3c(-c4ccncc4)nc(-c4ccc(S(C)(=O)=O)cc4C)n3C)ccc2c1 ?
93

====

Measured Percent Control, listed per entry for reference.
test system: MYLK2; details: Compound Concentration (nM):1000
I only need the number, in %, no unit after it.

> print(dat)
                                   molecule  u  result.number
1  CN(C)CCNC(=O)Nc1ccc(N(C)c2ccnc(Nc3ccc(CS(C)(=O)=O)cc3)n2)cc1.Cl [GW830900A]  %            100

Item under review: COc1cc(C=NNc2ncnc3c2cnn3-c2ccccc2)ccc1O [GW513184X] . Reported Percent Control?
43

Quick one: Percent Control of COC(=O)Nc1nc2ccc(Oc3ccc(NC(=O)Nc4cc(C(F)(F)F)ccc4F)cc3)cc2s1.Cl [GW693917A] ?
47

Please look up its Percent Control: COc1ccc(COc2ccc(Cc3cnc(N)nc3N)cc2OC)cc1 [GW632580X]
100

Source of measurements: paper PMC7826789
